- Tested on: PPARg:RXRa 90nM:30nM, anti-RXR (NR concentration 90 nM, RXRa partner concentration 30 nM)
- Assay Overview: PBM binding z-score (relative to random genomic background probes); higher = stronger binding; sequences stand for … in GC…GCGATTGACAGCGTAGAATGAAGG
# PBM binding z-score listing for each entry below
I'd appreciate a reply containing only the number, no unit.

[[record]]
seq_string = "CAAACTAGCTCACGAAAGGTCAAAGTCGAATGAC"
recorded_measurement = 3.03

[[record]]
seq_string = "TCATATAGGTACAGGTGAAAGTCGAACGATATGA"
recorded_measurement = 2.76

[[record]]
seq_string = "CCAACTAGGTCAAGGACAGTGAATCTCCGCACGC"
recorded_measurement = 4.79

[[record]]
seq_string = "CGAACTAGGTCATCCAGGACAGTCAATACATTGA"
recorded_measurement = 6.22


IN: Give the measured PBM binding z-score of "GCTGTTAGTTGAAAGGGCAACCGAATGATTCTCG" .
OUT: 2.33

IN: Give the measured PBM binding z-score of "CCTTACGGGTCACTGCCAGGTTATAGCATTTGGA" .
OUT: 2.88

====

# PBM binding z-score listing for each entry below
- System: RARg homodimer (NR concentration 270 nM)
- Assay Overview: PBM binding z-score (relative to random genomic background probes); higher = stronger binding; sequences stand for … in GC…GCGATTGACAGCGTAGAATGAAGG
I'd appreciate a reply containing only the number, no unit.

IN: Give the measured PBM binding z-score of "TCTTGTAGCTCAAGCAGGTTAAGAAAGCCTGAGT" .
OUT: -0.42

IN: Give the measured PBM binding z-score of "CCTATTTGTTGACCATAAGGGCAACCGAAGCTCG" .
OUT: 1.09

====

- Test system: PPARg:RXRa 90nM:30nM, anti-RXR (NR concentration 90 nM, RXRa partner concentration 30 nM)
- Assay Overview: PBM binding z-score (relative to random genomic background probes); higher = stronger binding; sequences stand for … in GC…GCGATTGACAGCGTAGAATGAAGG
Measured Property: PBM binding z-score

[[record]]
seq_string = "CGACAAAGTTCAACTAAGGTAACGTAAAGCACGC"
measured_property = "PBM binding z-score"
recorded_measurement = 3.95

[[record]]
seq_string = "TAATATAGGTAATACAGGTGAAAGTCGGCATCTA"
measured_property = "PBM binding z-score"
recorded_measurement = 2.17

[[record]]
seq_string = "ATTGAAAGGTCGTGAGGTGAGTATACAGAAAGGC"
measured_property = "PBM binding z-score"
recorded_measurement = 3.64

[[record]]
seq_string = "CGTCCAAGGTCAGAGAGGTCAGTTAATGCCGAGT"
measured_property = "PBM binding z-score"
recorded_measurement = 2.9

[[record]]
seq_string = "GCTCGGAGGACAAGGCCAGAGCTTTGTCCGTAGA"
measured_property = "PBM binding z-score"
recorded_measurement = -1.57

[[record]]
seq_string = "CCGACTGGGGCAAAGGTTACTATACTCAGTACGA"
measured_property = "PBM binding z-score"
recorded_measurement = 9.45

[[record]]
seq_string = "ATCTCTAGGTGAGACTCAGTTCAGTGAAGAACGC"
measured_property = "PBM binding z-score"
recorded_measurement = 0.412

[[record]]
seq_string = "CTGACTGGGGCATAAGGTTACCATAAGCCAGCCC"
measured_property = "PBM binding z-score"
recorded_measurement = 3.9


IN: Which measured PBM binding z-score belongs to "TCTTATAGGTAAAAGGTGAAAGTCGGTGTGGTAA" , tested on PPARg:RXRa 90nM:30nM, anti-RXR (NR concentration 90 nM, RXRa partner concentration 30 nM)?
OUT: 9.86

IN: Which measured PBM binding z-score belongs to "CGTCCAAGGTCCGAGAGGTCAGTGAATGCCGAGT" , tested on PPARg:RXRa 90nM:30nM, anti-RXR (NR concentration 90 nM, RXRa partner concentration 30 nM)?
OUT: -0.083

IN: Which measured PBM binding z-score belongs to "GATACAGGGTCAAGGCCAGAGTTCGCGTATTGAT" , tested on PPARg:RXRa 90nM:30nM, anti-RXR (NR concentration 90 nM, RXRa partner concentration 30 nM)?
OUT: 4.93

IN: Which measured PBM binding z-score belongs to "TAGCCTAGGTCATGGTCCAGTATACCACGCGAAC" , tested on PPARg:RXRa 90nM:30nM, anti-RXR (NR concentration 90 nM, RXRa partner concentration 30 nM)?
OUT: 1.94
